Biological target: recombinant Mst1 (Homo sapiens)
Assay: Inhibition of Mst1 kinase activity, ELISA of Mob1 substrate phosphorylation
Conditions: MST1 IC50, recombinant Mst1 11 nM; ATP 6.7 gIVI; GST-Mob1a substrate; 30° C. 15 min
Recorded endpoint: pIC50
Convention used: pIC50 is expressed as -log10 of the molar concentration.

Consider the worked cases shown below.
Compound: CN1C(=O)c2ccc(Cl)cc2N(C)c2nc(Nc3ccc(S(N)(=O)=O)cc3)ncc21 [IH-13]
Result number: 5.11
--
Compound: CN1C(=O)c2sccc2N(C)c2nc(Nc3ccc(C(N)=O)cc3)ncc21 [II-13]
Result number: 6.48
--
Compound: CN1C(=O)c2ccccc2N(C)c2nc(Nc3ccc(S(=O)(=O)N4CCC(O)CC4)cc3)ncc21 [IC-3]
Result number: 6.17
--
Compound: CSc1ccc(Nc2ncc3c(n2)N(C)c2ccsc2C(=O)N3C)cc1 [II-3]
Result number: 6.07
--
Compound: CN1C(=O)c2sccc2N(C)c2nc(Nc3cn[nH]c3)ncc21 [II-28]
Result number: 6.27
--
Compound: CN1CCN(C(=O)c2ccc(Nc3ncc4c(n3)N(C)c3ccsc3C(=O)N4C)cc2)CC1 [II-17]
Result number: 6.21

Q: Fill in the recorded pIC50 for this compound, with recombinant Mst1 (Homo sapiens) as test system: CN1C(=O)c2cc(Cl)ccc2N(C)c2nc(Nc3ccc(S(C)(=O)=O)cc3)ncc21 [IH-9]
Result: 5.25

Q: Fill in the recorded pIC50 for this compound, with recombinant Mst1 (Homo sapiens) as test system: CN1C(=O)c2cc(Cl)ccc2N(C)c2nc(Nc3ccc(S(N)(=O)=O)cc3)ncc21 [IH-10]
Result: 5.23

Q: Fill in the recorded pIC50 for this compound, with recombinant Mst1 (Homo sapiens) as test system: CN1C(=O)c2sccc2N(C)c2nc(Nc3cnn(C(=O)CCl)c3)ncc21 [II-30]
Result: 6.09

Q: Fill in the recorded pIC50 for this compound, with recombinant Mst1 (Homo sapiens) as test system: CN1C(=O)c2sccc2N(C)c2nc(Nc3ccc(OC(=O)CCl)cc3)ncc21 [II-25]
Result: 6.24

Q: Fill in the recorded pIC50 for this compound, with recombinant Mst1 (Homo sapiens) as test system: CN1C(=O)c2sccc2N(C)c2nc(Nc3ccc(S(C)(=O)=O)cc3)ncc21 [II-4]
Result: 6.77

Q: Fill in the recorded pIC50 for this compound, with recombinant Mst1 (Homo sapiens) as test system: CN1CCN(C2CCN(C(=O)c3ccc(Nc4ncc5c(n4)N(C)c4ccsc4C(=O)N5C)cc3)CC2)CC1 [II-24]
Result: 6.66

Q: Fill in the recorded pIC50 for this compound, with recombinant Mst1 (Homo sapiens) as test system: CN1C(=O)c2sccc2N(C)c2nc(Nc3ccc(S(=O)(=O)N4CCC(O)CC4)cc3)ncc21 [II-8]
Result: 7.10

Q: Fill in the recorded pIC50 for this compound, with recombinant Mst1 (Homo sapiens) as test system: Cc1cccc2c1N(C)c1nc(Nc3ccc(S(N)(=O)=O)cc3)ncc1N(C)C2=O [IH-4]
Result: 6.82

Q: Fill in the recorded pIC50 for this compound, with recombinant Mst1 (Homo sapiens) as test system: CN1CCN(S(=O)(=O)c2ccc(Nc3ncc4c(n3)N(C)c3ccsc3C(=O)N4C)cc2)CC1 [II-7]
Result: 5.96

Q: Fill in the recorded pIC50 for this compound, with recombinant Mst1 (Homo sapiens) as test system: CSc1ccc(Nc2ncc3c(n2)N(C)c2ccccc2C(=O)N3C)cc1 [IC-6]
Result: 5.72

Q: Fill in the recorded pIC50 for this compound, with recombinant Mst1 (Homo sapiens) as test system: Cc1cccc2c1N(C)c1nc(Nc3ccc(S(C)(=O)=O)cc3)ncc1N(C)C2=O [IH-2]
Result: 6.05

Q: Fill in the recorded pIC50 for this compound, with recombinant Mst1 (Homo sapiens) as test system: CC(C)N1c2ccccc2C(=O)N(C)c2cnc(Nc3cccc(S(N)(=O)=O)c3)nc21 [IE-2]
Result: 4.80

----------
In this section, each of the molecules is paired with its reported IC50.
Molecular target: recombinant Mst1 (Homo sapiens)
Sequence (Q13043 1-487): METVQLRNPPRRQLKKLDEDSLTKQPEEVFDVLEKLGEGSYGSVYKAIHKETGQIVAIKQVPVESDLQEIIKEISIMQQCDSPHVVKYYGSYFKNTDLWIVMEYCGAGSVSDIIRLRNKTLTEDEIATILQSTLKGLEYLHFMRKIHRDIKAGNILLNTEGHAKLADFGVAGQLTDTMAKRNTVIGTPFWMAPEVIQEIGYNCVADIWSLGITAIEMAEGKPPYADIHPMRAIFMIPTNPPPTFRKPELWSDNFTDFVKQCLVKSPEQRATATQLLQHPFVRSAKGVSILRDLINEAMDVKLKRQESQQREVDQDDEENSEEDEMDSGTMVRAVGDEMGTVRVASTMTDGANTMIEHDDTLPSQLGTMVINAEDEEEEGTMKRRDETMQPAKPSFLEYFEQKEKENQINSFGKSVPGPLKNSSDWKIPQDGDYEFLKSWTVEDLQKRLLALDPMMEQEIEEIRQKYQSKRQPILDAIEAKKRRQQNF
Test: Inhibition of Mst1 kinase activity, ELISA of Mob1 substrate phosphorylation
Conditions: MST1 IC50, recombinant Mst1 11 nM; ATP 6.7 gIVI; GST-Mob1a substrate; 30° C. 15 min
Method: We adopt a specific ELISA (Enzyme-linked immunosorbent assay) assay for measuring the biochemical activity (FIG. 1). Specific methods are as follows: 1. The substrate was diluted with purified recombinant GST-Mobla 200 nM in coating buffer, added to 96-well plates (Nalge Nunc International, Denmark), coated for overnight at 4° C., washed nextday three times with rinsing solution; a. A kinase reaction buffer; […]

Consider the worked cases shown below.
Molecule: CN1C(=O)c2ccccc2Nc2nc(Nc3ccc(NS(C)(=O)=O)cc3)ncc21 [IG-2]
IC50: 5800 nM
--
Molecule: CN1C(=O)c2sccc2N(C)c2nc(Nc3ccc(O)cc3)ncc21 [II-12]
IC50: 570 nM
--
Molecule: CN1C(=O)c2sccc2N(C)c2nc(Nc3ccc(S(N)(=O)=O)cc3)ncc21 [II-1]
IC50: 140 nM
--
Molecule: CN1C(=O)c2sccc2N(C)c2nc(Nc3ccc(S(=O)(=O)NC4CC4)cc3)ncc21 [II-6]
IC50: 260 nM

Q: Which IC50 value is on record for CN1C(=O)c2sccc2N(C)c2nc(Nc3ccc(S(=O)(=O)Oc4ccccc4)cc3)ncc21 [II-5] ?
Result: 4640 nM

Q: Which IC50 value is on record for CN1C(=O)c2sccc2N(C)c2nc(Nc3cccc(S(N)(=O)=O)c3)ncc21 [II-2] ?
Result: 2710 nM

----------
Biological target: recombinant MST2 (Homo sapiens)
Sequence (Q13188 1-491): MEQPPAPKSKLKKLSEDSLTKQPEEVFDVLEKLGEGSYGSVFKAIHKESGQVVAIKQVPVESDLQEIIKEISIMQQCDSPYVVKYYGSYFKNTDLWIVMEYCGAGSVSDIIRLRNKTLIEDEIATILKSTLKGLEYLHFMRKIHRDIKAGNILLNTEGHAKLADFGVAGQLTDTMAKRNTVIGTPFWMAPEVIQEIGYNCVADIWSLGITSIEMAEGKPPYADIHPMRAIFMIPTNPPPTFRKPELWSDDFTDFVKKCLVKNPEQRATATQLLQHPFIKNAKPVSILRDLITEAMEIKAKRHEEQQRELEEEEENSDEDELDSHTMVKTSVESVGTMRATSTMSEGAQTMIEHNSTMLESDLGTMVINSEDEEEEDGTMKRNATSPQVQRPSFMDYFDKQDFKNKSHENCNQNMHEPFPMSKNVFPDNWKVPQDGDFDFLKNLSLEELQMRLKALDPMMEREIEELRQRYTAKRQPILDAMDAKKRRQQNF
Assay: Inhibition of Mst2 kinase activity, ELISA of Mob1 substrate phosphorylation
Conditions: MST2 IC50, 3.7 nM recombinant MST2; ATP 11.2 gIVI; GST-Mob1a substrate; 30° C. 15 min
Recorded endpoint: IC50

Structure string: O=C1Nc2cnc(Nc3ccc(S(=O)(=O)N4CCC(O)CC4)cc3)nc2N(C2CCCC2)c2ccccc21
IC50: > 30 µM

Q: Which IC50 value is on record for "C=CC(=O)Nc1ccc(Nc2ncc3c(n2)N(C)c2ccsc2C(=O)N3C)cc1" ?
Result: 4.76 µM

----------
Target: recombinant Mst1 (Homo sapiens)
Sequence (Q13043 1-487): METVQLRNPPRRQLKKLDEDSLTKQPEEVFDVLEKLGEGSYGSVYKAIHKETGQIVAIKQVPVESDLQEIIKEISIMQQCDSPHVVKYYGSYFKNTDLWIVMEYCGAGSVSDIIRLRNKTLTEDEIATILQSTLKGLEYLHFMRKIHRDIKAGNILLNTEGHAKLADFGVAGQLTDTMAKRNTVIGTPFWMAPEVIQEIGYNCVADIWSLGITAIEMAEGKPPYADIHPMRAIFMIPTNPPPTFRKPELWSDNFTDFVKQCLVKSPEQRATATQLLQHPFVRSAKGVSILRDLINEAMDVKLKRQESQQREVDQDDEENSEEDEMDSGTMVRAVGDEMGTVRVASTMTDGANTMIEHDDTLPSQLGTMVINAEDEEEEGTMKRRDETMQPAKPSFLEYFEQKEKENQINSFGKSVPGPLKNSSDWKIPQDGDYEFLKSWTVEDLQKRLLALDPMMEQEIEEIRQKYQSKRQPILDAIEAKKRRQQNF
Experiment: Inhibition of Mst1 kinase activity, ELISA of Mob1 substrate phosphorylation
Conditions: MST1 IC50, recombinant Mst1 11 nM; ATP 6.7 gIVI; GST-Mob1a substrate; 30° C. 15 min
The label is yes for IC50 below 600 nM and no for IC50 equal to or exceeding 600 nM.

Structure string: CCN1c2ccccc2C(=O)N(C)c2cnc(Nc3cccc(S(N)(=O)=O)c3)nc21
Assayed system: recombinant Mst1 (Homo sapiens)
Label value: no

Q: Consider "CN1C(=O)c2sccc2N(C)c2nc(Nc3cc[nH]n3)ncc21" . Does its IC50 lie strictly below 600 nM?
Result: no

Q: Consider "CN1C(=O)c2ccccc2N(C2CCCC2)c2nc(Nc3ccc(S(N)(=O)=O)cc3)ncc21" . Does its IC50 lie strictly below 600 nM?
Result: no

Q: Consider "CN1C(=O)c2ccccc2N(C)c2nc(Nc3ccc(S(C)(=O)=O)cc3)ncc21" . Does its IC50 lie strictly below 600 nM?
Result: yes

Q: Consider "C=CS(=O)(=O)Nc1ccc(Nc2ncc3c(n2)N(C)c2ccsc2C(=O)N3C)cc1" . Does its IC50 lie strictly below 600 nM?
Result: no

Q: Consider "CN1C(=O)c2ccccc2Nc2nc(Nc3ccc(S(N)(=O)=O)cc3)ncc21" . Does its IC50 lie strictly below 600 nM?
Result: no

Values compiled from patent US10975092B2.
